Assign Kd to each entry below.
# EXPERIMENTAL_TARGET: T1, EsCas13d, nuclease-dead (Eubacterium siraeum, UniProt B0MS50, R295A;H300A;R849A;H854A)
# T1 sequence: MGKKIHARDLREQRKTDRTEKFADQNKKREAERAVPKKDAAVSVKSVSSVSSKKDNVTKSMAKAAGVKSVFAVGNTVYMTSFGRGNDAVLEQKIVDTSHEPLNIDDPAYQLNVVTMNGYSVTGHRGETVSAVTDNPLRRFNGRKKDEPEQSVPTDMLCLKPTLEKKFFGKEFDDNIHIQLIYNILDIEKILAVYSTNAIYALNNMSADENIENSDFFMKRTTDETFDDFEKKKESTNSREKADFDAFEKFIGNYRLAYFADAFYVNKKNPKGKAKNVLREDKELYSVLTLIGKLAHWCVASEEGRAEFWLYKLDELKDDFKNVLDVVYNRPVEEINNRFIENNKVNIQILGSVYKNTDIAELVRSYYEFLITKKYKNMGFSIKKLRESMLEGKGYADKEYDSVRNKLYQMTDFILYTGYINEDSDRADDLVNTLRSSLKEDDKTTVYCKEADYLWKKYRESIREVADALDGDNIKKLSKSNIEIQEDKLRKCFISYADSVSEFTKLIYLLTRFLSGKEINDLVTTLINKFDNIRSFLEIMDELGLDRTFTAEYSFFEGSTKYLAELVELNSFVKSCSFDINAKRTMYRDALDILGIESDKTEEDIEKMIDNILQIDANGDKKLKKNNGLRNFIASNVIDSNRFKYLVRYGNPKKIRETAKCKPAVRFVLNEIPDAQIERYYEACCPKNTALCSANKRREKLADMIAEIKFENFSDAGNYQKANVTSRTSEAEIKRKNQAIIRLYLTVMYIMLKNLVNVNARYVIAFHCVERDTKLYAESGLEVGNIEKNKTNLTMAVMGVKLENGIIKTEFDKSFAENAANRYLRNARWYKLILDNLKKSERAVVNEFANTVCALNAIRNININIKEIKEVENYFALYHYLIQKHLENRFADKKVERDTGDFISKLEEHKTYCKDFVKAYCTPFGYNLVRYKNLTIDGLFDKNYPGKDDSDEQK
# PROTOCOL_DESCRIPTION: crRNA (strand 1, pre-loaded); Mg2+; 40 mM Tris-HCl pH 7.5, 150 mM NaCl, 6 mM MgCl2, 1 mM DTT, 0.1% Tween-20, 0.2 mg/ml BSA; 25 C; 10 min per concentration, then washed
# ASSAY_CONTEXT: tags: His6-TwinStrep-SUMO cleaved; N-terminal SNAP kept (SNAP-Surface 488); label: 3' end held by stalled T7 RNA polymerase

Entry target 2 MT 5'PFS GAG 3'PFS CGA (mixed) RNA 1: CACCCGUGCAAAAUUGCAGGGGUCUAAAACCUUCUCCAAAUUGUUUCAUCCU RNA 2: GGGAAUGGAUCCACAUCUACGAAUUCGAGAGGAUGAAACAAUUUGGAGAAGCGAAGAUCGGAAGAGCACACGU has what Kd?
4.9 nM

Entry target 1 A1G,G15C (mixed) RNA 1: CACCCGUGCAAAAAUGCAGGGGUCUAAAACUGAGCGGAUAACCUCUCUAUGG RNA 2: GGGAAUGGAUCCACAUCUACGAAUUCGUACCAUAGACAGGUUAUCCGCUCGCCGAGAUCGGAAGAGCACACGU has what Kd?
58 nM

Entry target 1 insA 3' of 22,insU 3' of 2 (mixed) RNA 1: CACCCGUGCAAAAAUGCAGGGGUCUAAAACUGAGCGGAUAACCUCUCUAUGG RNA 2: GGGAAUGGAUCCACAUCUACGAAUUCGUACACAUAGAGAGGUUAUCCGCUCUACCGAGAUCGGAAGAGCACACGU has what Kd?
14.6 nM

Entry target 1 MT 5'PFS GGC 3'PFS CAC (mixed) RNA 1: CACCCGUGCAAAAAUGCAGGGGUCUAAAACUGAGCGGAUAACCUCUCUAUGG RNA 2: GGGAAUGGAUCCACAUCUACGAAUUCGGCCCAUAGAGAGGUUAUCCGCUCACACAGAUCGGAAGAGCACACGU has what Kd?
~17 nM
